# reported IC50; entries follow
Biological target: CRTH2 (Homo sapiens, UniProt Q9Y5Y4)
Construct: endogenous in cells; host or cells: eosinophils in human whole blood
Sequence (Q9Y5Y4 whole entry): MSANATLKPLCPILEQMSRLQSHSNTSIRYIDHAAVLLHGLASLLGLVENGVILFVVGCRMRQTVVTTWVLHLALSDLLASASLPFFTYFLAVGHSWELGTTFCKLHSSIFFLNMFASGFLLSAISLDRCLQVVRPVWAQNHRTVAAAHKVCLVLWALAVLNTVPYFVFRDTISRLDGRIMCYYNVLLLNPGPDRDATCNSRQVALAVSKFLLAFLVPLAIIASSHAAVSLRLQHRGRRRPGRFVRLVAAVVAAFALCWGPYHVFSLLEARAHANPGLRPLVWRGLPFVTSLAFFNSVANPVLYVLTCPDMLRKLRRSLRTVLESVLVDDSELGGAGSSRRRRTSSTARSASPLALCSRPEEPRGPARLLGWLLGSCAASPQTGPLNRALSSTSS
Assay: Human whole blood CD11b antagonist assay (CD11b expression in eosinophils challenged with 15-R-methyl-PGD2)
Assay type: cell-based
Settings: 37° C. 10 minutes preincubation, agonist 15R-Methyl-PGD2 10 nM, eosinophils gated by flow cytometry

Below, each entry is followed by its recorded IC50 result.
compound	IC50
Cc1c(Cc2cccnc2S(=O)(=O)C2CC2)c2c(n1CC(=O)O)CC(C)(C)CC2=O	100 to 500 nM
CCOC(=O)Cn1c(C)c(Cc2cccnc2S(=O)(=O)c2ccc(OC)cc2)c2c1CC(C)(C)CC2=O	500 to 3000 nM
Cc1ccc(S(=O)(=O)Nc2ccccc2Cc2c3c(n(CC(=O)O)c2C)CC(C)(C)CC3=O)cc1	1 to 5 nM
CCOC(=O)Cn1c(C)c(Cc2cccnc2S(=O)(=O)c2cccc(OC)c2)c2c1CC(C)(C)CC2=O	500 to 3000 nM
CCOC(=O)Cn1c(C)c(Cc2cccnc2S(=O)(=O)c2ccccc2)c2c1CC(C)(C)CC2=O	500 to 3000 nM

Ask | For the compound Cc1c(Cc2ccccc2N(C)S(=O)(=O)N2CCCC2)c2c(n1CC(=O)O)CC(C)(C)CC2=O , give its measured IC50 value.
Reply | 20 to 100 nM

Ask | Fill in IC50 for record Cc1c(Cc2cccnc2S(=O)(=O)c2ccccc2C(F)(F)F)c2c(n1CC(=O)O)CC(C)(C)CC2=O
Reply | 5 to 20 nM

Ask | For the compound Cc1c(Cc2ccccc2NS(=O)(=O)N2CCCC2)c2c(n1CC(=O)O)CC(C)(C)CC2=O [Compound I-40] , report IC50.
Reply | 100 to 500 nM

Ask | Please list IC50 recorded for the compound CCOC(=O)N1CCN(S(=O)(=O)c2ccc(Cc3c4c(n(CC(=O)O)c3C)CCOC4)cc2)CC1
Reply | 100 to 500 nM

* * *

Target: CRTH2 (Homo sapiens, UniProt Q9Y5Y4)
Construct: endogenous in cells; host or cells: eosinophils in human whole blood
Experiment: Human whole blood CD11b antagonist assay (CD11b expression in eosinophils challenged with 15-R-methyl-PGD2)
Type: cell-based
Details: 37° C. 10 minutes preincubation, agonist 15R-Methyl-PGD2 10 nM, eosinophils gated by flow cytometry
Each entry below carries its reported IC50.

compound	result
COc1cccc(S(=O)(=O)c2ncccc2Cc2c3c(n(CC(=O)O)c2C)CC(C)(C)CC3=O)c1	20 to 100 nM
CCOC(=O)Cn1c(C)c(Cc2cccnc2S(=O)(=O)c2ccc(Cl)cc2)c2c1CC(C)(C)CC2=O	500 to 3000 nM
Cc1c(Cc2ccccc2S(=O)(=O)N2CCCC2)c2c(n1CC(=O)O)CC(C)(C)C/C2=N\OCc1ccccc1	100 to 500 nM

Ask | Specify the recorded IC50 for Cc1c(Cc2ccccc2S(=O)(=O)N2CCCC2)c2c(n1CC(=O)O)CCNC2=O , system: CRTH2 (Homo sapiens, UniProt Q9Y5Y4).
Reply | 5 to 20 nM

Ask | Provide the reported IC50 (system: CRTH2 (Homo sapiens, UniProt Q9Y5Y4)) for Cc1c(Cc2ccccc2NS(=O)(=O)N2CCCC2)c2c(n1CC(=O)O)CC(C)(C)CC2=O [Compound I-44]
Reply | 100 to 500 nM

Ask | # lookup: CRTH2 (Homo sapiens, UniProt Q9Y5Y4) IC50, key = Cc1c(Cc2ccccc2NS(=O)(=O)N2CCCC2)c2c(n1CC(=O)O)CC(C)(C)CC2=O [Compound I-47]
Reply | 20 to 100 nM

Ask | # return IC50 of Cc1c(Cc2sccc2S(=O)(=O)c2ccccc2)c2c(n1CC(=O)O)CC(C)(C)CC2=O (system: CRTH2 (Homo sapiens, UniProt Q9Y5Y4))
Reply | < 1 nM

// data source = patent US20130259830A1
